// reported Cell viability for each item listed
test system: 293T cells; experiment: Cell viability assay (CCK-8) with LNP preparations of Fluc-mRNA; format: cell-based; settings: LNP with 1.5 μg Fluc-mRNA, 24 hours, CCK-8
Kindly answer with a numeric value in %, unit omitted.

Compound: CCCCCCCCCCCOC(=O)CCCCCN(CCO)CCCCCCCC(=O)OC(CCCCCCCC)CCCCCCCC [SM-102, reference compound]
Value kind: Cell viability
Uom: %
Measured value: 82

Inquiry: Give Cell viability for CCCCCCCCC(CCCCCC)COC(=O)CCCCCN(CCCCCC(=O)OCC(CCCCCC)CCCCCCCC)CCCCC(=O)OCc1ccccc1.I (stereo not shown) [I-1, reference compound] tested on 293T cells.
Reply text: 68

Inquiry: Retrieve Cell viability on 293T cells; query `CCCCCCCCCCCCCCNC(=O)CCCCCNC(CO)(CO)CCc1ccc(CCCCCCCC)cc1`
Reply text: 73

====

tested on: female BALB/C mice; assay: Expression of delivered mRNA in different organs of mice (organ imaging); type: in vivo; conditions: spleen, 6 h, vs SM-102
Expression level of mRNA in the spleen, times that of SM-102 reference
Entry rule: numbers only, all in times.

Sample answers from the record:
Compound: CCCCCCCCCCC(CCCCCCCC)COC(=O)CCCCCNC(CO)(CO)CCc1ccc(CCCCCCCC)cc1 (stereo not shown)
Measured value: 6.86

Compound: CCCCCCCCCCCOC(=O)CCCN(CCCCCCC(=O)OCCC(CCCCCC)CCCCCC)CCNC(CO)(CO)CCc1ccc(CCCCCCCC)cc1
Measured value: 9.49

Compound: CCCCCCCCCCOC(=O)CCCN(CCCCCC(=O)OCCC(CCCCCC)CCCCCC)CCNC(CO)(CO)CCc1ccc(CCCCCCCC)cc1
Measured value: 8.00

--- query ---
Inquiry: Output measured Expression level of mRNA in the spleen, times that of SM-102 for this item: CCCCCCCCc1ccc(CCC(CO)(CO)NCCCCCCNC(=O)C(CCCCCC)CCCCCCCC)cc1 (stereo not shown)
Reply text: 6.59

====

# key: entry, value: Cell viability
system: 293T cells; experiment: Cell viability assay (CCK-8) with LNP preparations of Fluc-mRNA; type: cell-based; conditions: LNP with 1.5 μg Fluc-mRNA, 24 hours, CCK-8
Expressed in %, but write only the number.

Examples with answers:
Molecule: CCCCCCCCCCCOC(=O)CCCN(CCCCCCC(=O)OCCC(CCCCCC)CCCCCC)CCNC(CO)(CO)CCc1ccc(CCCCCCCC)cc1 [YK-910]
Uom: %
Cell viability: 94

Molecule: CCCCCCCCc1ccc(CCC(CO)(CO)NCCCCCCNC(=O)C(CCCCCC)CCCCCCCC)cc1 (centres unmarked) [YK-908]
Uom: %
Cell viability: 89

Molecule: CCCCCCCCCCCOC(=O)CCCCCCNC(CO)(CO)CCc1ccc(CCCCCCCC)cc1 [YK-904]
Uom: %
Cell viability: 52

Molecule: CCCCC/C=C\C/C=C\CCCCCCCCC(CCCCCCCC/C=C\C/C=C\CCCCC)OC(=O)CCCN(C)C [MC3, reference compound]
Uom: %
Cell viability: 74

Molecule: CCCCCCCCCCCOC(=O)CCCCCNC(CO)(CO)CCc1ccc(CCCCCCCC)cc1 [YK-905]
Uom: %
Cell viability: 51

Molecule: CCCCCCCCCCOC(=O)CCCNC(CO)(CO)CCc1ccc(CCCCCCCC)cc1 [YK-903]
Uom: %
Cell viability: 47

Molecule: CCCCCCCCCCC(CCCCCCCC)COC(=O)CCCCCNC(CO)(CO)CCc1ccc(CCCCCCCC)cc1 (centres unmarked) [YK-912]
Uom: %
Cell viability: 87

Let's switch to this molecule now.
Inquiry: Identify measured Cell viability corresponding to CCCCCCCCc1ccc(CCC(CO)(CO)NCCCCCCC(=O)OCC(CCCCCCCC)CCCCCCCC)cc1 [YK-911]
Reply text: 62

====

assay: Particle size and polydispersity index (PDI) of lipid nanoparticles, dynamic light scattering; assay type: physicochemical; conditions: LNP preparation with the named cationic lipid; 90° scattering angle, 25° C
Value kind: PDI (%)
Quick note: give the figure in %, leave out the unit.

The examples below pair each entry with its known result.
Compound: CCCCCCCCCCC(CCCCCCCCCC)CCCOC(=O)CCCNC(CO)(CO)CCc1ccc(CCCCCCCC)cc1
Value kind: PDI
Measured value: 12.4

Compound: CCCCCCCCCCC(CCCCCCCC)COC(=O)CCCCCNC(CO)(CO)CCc1ccc(CCCCCCCC)cc1 (stereo not shown)
Value kind: PDI
Measured value: 9.5

Compound: CCCCCCCCCCCOC(=O)CCCCCNC(CO)(CO)CCc1ccc(CCCCCCCC)cc1
Value kind: PDI
Measured value: 16.9

Next compound, please.
Inquiry: Given CCCCCCCCCCCCC(O)CN(C)CCCCCC(=O)OCC(CCCCCC)CCCCCCCC (stereo not shown) [HHMA, reference compound] , respond with its PDI.
Reply text: 16.3

====

assay: Particle size and polydispersity index (PDI) of lipid nanoparticles, dynamic light scattering; type: physicochemical; conditions: LNP preparation with the named cationic lipid; 90° scattering angle, 25° C
Value kind: PDI (%)
Kindly answer with a numeric value in %, unit omitted.

Sample records with PDI:
Compound: CCCCCCCCc1ccc(CCC(CO)(CO)NCCCCCCNC(=O)C(CCCCCC)CCCCCCCC)cc1 (stereo not drawn) [YK-908]
Uom: %
PDI: 12.2
--
Compound: CCCCCCCCC(CCCCCC)COC(=O)CCCCCN(CCCCCC(=O)OCC(CCCCCC)CCCCCCCC)CCN(CCO)c1ccccc1 (stereo not drawn) [Compound 7, reference compound]
Uom: %
PDI: 14.3
--
Compound: CCCCCCCCCCOC(=O)CCCN(CCCCCC(=O)OCC(CCCCCCCC)CCCCCCCC)CCNC(CO)(CO)CCc1ccc(CCCCCCCC)cc1 [YK-906]
Uom: %
PDI: 10.2

Inquiry: Specify measured PDI for CCCCCCCCCCCOC(=O)CCCN(CCCCCCC(=O)OCCC(CCCCCC)CCCCCC)CCNC(CO)(CO)CCc1ccc(CCCCCCCC)cc1 [YK-910] .
Reply text: 10.3

Inquiry: For the compound CCCCCCCCCCCOC(=O)CCCCCCNC(CO)(CO)CCc1ccc(CCCCCCCC)cc1 [YK-904] , give its reported PDI.
Reply text: 8.2

Inquiry: Look up and report measured PDI for this entry: CCCCCCCCCCOC(=O)CCCN(CCCCCC(=O)OCCC(CCCCCC)CCCCCC)CCNC(CO)(CO)CCc1ccc(CCCCCCCC)cc1 [YK-909]
Reply text: 11.9

Inquiry: Fill in reported PDI for this entry: CCCCCCCCCCOC(=O)CCCNC(CO)(CO)CCc1ccc(CCCCCCCC)cc1 [YK-903]
Reply text: 15.1

====

test: Particle size and polydispersity index (PDI) of lipid nanoparticles, dynamic light scattering; assay type: physicochemical; conditions: LNP preparation with the named cationic lipid; 90° scattering angle, 25° C
Reported Particle size values are given for each entry in this list.
Dear colleague, please return just the value in nm, with no unit written.

Molecule: CCCCCCCCCCCCC(O)CN(C)CCCCCC(=O)OCC(CCCCCC)CCCCCCCC (centres unmarked) [HHMA, reference compound]
Value kind: Particle size
Uom: nm
Measured value: 146

Molecule: CCCCCCCCCCOC(=O)CCCN(CCCCCC(=O)OCCC(CCCCCC)CCCCCC)CCNC(CO)(CO)CCc1ccc(CCCCCCCC)cc1 [YK-909]
Value kind: Particle size
Uom: nm
Measured value: 132

Molecule: CCCCCCCCc1ccc(CCC(CO)(CO)NCCCCCCNC(=O)C(CCCCCC)CCCCCCCC)cc1 (centres unmarked) [YK-908]
Value kind: Particle size
Uom: nm
Measured value: 121

Molecule: CCCCCCCCCCC(CCCCCCCCCC)CCCOC(=O)CCCCCNC(CO)(CO)CCc1ccc(CCCCCCCC)cc1 [YK-901]
Value kind: Particle size
Uom: nm
Measured value: 162

Molecule: CCCCCCCCCCCOC(=O)CCCN(CCCCCCC(=O)OCCC(CCCCCC)CCCCCC)CCNC(CO)(CO)CCc1ccc(CCCCCCCC)cc1 [YK-910]
Value kind: Particle size
Uom: nm
Measured value: 126

Inquiry: For the molecule CCCCC/C=C\C/C=C\CCCCCCCCC(CCCCCCCC/C=C\C/C=C\CCCCC)OC(=O)CCCN(C)C [MC3, reference compound] , report Particle size.
Reply text: 151

Inquiry: Write down Particle size measured for item CCCCCCCCC(CCCCCC)COC(=O)CCCCCN(CCCCCC(=O)OCC(CCCCCC)CCCCCCCC)CCCCC(=O)OCc1ccccc1.I (centres unmarked) [I-1, reference compound]
Reply text: 158

Inquiry: Supply reported Particle size belonging to this molecule: CCCCCCCCCCC(CCCCCCCCCC)CCCOC(=O)CCCNC(CO)(CO)CCc1ccc(CCCCCCCC)cc1 [YK-902]
Reply text: 142
